B1: SPSB4 (parent)
chain: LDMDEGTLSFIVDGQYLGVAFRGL

# Variants of: B1
# TEST DESCRIPTION: protein stability index of a GFP-peptide fusion (GPS, HEK-293T) (PSI 1-6); higher = more stable;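 further: lentivirally expressed fusions sorted by FACS into six bins by GFP to DsRed ratio, PSI derived from sequencing read proportions per bin multiplied by bin number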
# PROTOCOL CONDITIONS: c terminus: a fixed tail appended
READOUT: protein stability index
Would you mind answering with just the numeric figure?

Some entries whose results are on file:
| RESIDUE SEQUENCE | protein stability index |
| --- | --- |
| LDMDEGTLSFIVDGQYLPVAFRGL [G18P] | 1.26 |
| LDIDEGTLSFIVDGQYLGVAFRGL [M3I] | 1.33 |
| LDMDEGTLSFIVDGQYLGVAFFGL [R22F] | 2.57 |
| LDMDEGTLSFIVDGQYLGVAFRKL [G23K] | 1.97 |
| LDPDEGTLSFIVDGQYLGVAFRGL [M3P] | 1.74 |

Now consider a different variant.
Prompt line: Which measured protein stability index value corresponds to LDMDEGTLSFIVDGQKLGVAFRGL [Y16K] ?
Response line: 1.93
